target: human 5-HT2C receptor (Homo sapiens, UniProt P28335); experiment: 5-HT2C receptor-stimulated calcium mobilization (FLIPR) in CHO cells; format: cell-based; settings: calcium mobilization, CHO cells stably expressing human 5-HT2C; read-out: 5-HT2C Function EC50;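 also: Fluo-3-AM fluorescence read on FLIPR every 1 s, agonist added after 10 baseline reads, response taken as peak minus lowest raw fluorescence count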
Sequence (P28335 33-458): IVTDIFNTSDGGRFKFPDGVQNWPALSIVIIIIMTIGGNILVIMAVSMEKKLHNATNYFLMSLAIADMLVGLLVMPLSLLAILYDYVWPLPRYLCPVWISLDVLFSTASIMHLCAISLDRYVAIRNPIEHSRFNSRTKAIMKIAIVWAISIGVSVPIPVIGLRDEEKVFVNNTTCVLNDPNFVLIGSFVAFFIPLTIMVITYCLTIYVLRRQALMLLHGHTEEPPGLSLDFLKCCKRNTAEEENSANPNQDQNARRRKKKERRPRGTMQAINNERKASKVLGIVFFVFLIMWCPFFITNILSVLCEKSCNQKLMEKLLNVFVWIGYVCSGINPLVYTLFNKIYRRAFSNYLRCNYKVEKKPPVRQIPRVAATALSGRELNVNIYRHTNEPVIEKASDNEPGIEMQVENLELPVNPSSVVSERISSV
pEC50: −log10 of the molar value.
Classification field: enter 1.0 for pEC50 values not below 8, 0.0 for values below it.

# compound, classification
measured = [
    ("CNC[C@H]1Cc2cc(F)cc(-c3ccccc3Cl)c2O1", 1.0),
    ("Cc1ccc(-c2cccc3c2OC(CN)C3)cc1 (racemic) [Example 70]", 0.0),
    ("COc1ccc(-c2cccc3c2OC(CN)C3)cc1 (racemic) [Example 79]", 0.0),
    ("Cc1cccc(C)c1-c1cc(Cl)cc2c1OC(CNCC1CC1)C2 (racemic)", 0.0),
    ("NCC1Cc2cc(F)cc(-c3cc(F)ccc3F)c2O1 (racemic)", 0.0),
    ("NCC1Cc2cc(C3CCCC3)cc(-c3ccccc3Cl)c2O1 (racemic)", 0.0),
    ("Cc1cc2c(c(-c3ccc(F)cc3)c1)OC(CN)C2 (racemic)", 0.0),
    ("CCc1cc2c(c(-c3ccccc3Cl)c1)OC(CN)C2 (racemic)", 1.0),
    ("Cc1cc2c(c(-c3ccc(Cl)cc3Cl)c1)OC(CN)C2 (single isomer, unassigned; (-)) [Example 298]", 0.0),
]

----------
target: human 5-hydroxytryptamine-2C (h5-HT2C) receptor (Homo sapiens, UniProt P28335); construct: expressed in transfected cells; host or cells: CHO (Chinese Hamster Ovary) cells; membranes; assay: [125I]DOI binding to membranes of CHO cells expressing the human 5-HT2C receptor; conditions: [125I]DOI radioligand, CHO cell membranes, room temperature 60 min; read-out: 5-HT2C Affinity Ki
Sequence (P28335 33-458): as above
pKi: −log10 of the molar value.
# key: entry, value: pKi
quantity: pKi

# compound, target.system, value.reported
data = [
    ("COc1cc(Cl)cc2c1OC(CN)C2 (racemic) [Example 111]", "human 5-hydroxytryptamine-2C (h5-HT2C) receptor (Homo sapiens, UniProt P28335)", 7.59),
    ("CNCC1Cc2cc(OC)cc(-c3cccc(C)c3C)c2O1 (racemic) [Example 496]", "human 5-hydroxytryptamine-2C (h5-HT2C) receptor (Homo sapiens, UniProt P28335)", 7.34),
    ("Cc1ccccc1-c1cc(F)c2c(c1)CC(CN)O2 (racemic) [Example 375]", "human 5-hydroxytryptamine-2C (h5-HT2C) receptor (Homo sapiens, UniProt P28335)", 7.15),
    ("CN(C)C[C@H]1Cc2cc(F)cc(-c3c(Cl)cccc3Cl)c2O1 [Example 547]", "human 5-hydroxytryptamine-2C (h5-HT2C) receptor (Homo sapiens, UniProt P28335)", 8.74),
    ("CNCC1Cc2cc(C)cc(-c3c(Cl)cccc3Cl)c2O1 (racemic) [Example 490]", "human 5-hydroxytryptamine-2C (h5-HT2C) receptor (Homo sapiens, UniProt P28335)", 9.00),
    ("Cc1ccccc1-c1cc(Cl)cc2c1OC(CN)C2 (single isomer, unassigned; (-)) [Example 97]", "human 5-hydroxytryptamine-2C (h5-HT2C) receptor (Homo sapiens, UniProt P28335)", 8.40),
    ("Cc1cc(Cl)ccc1-c1cccc2c1OC(CN)C2 (single isomer, unassigned; (+)) [Example 158]", "human 5-hydroxytryptamine-2C (h5-HT2C) receptor (Homo sapiens, UniProt P28335)", 8.96),
    ("Cc1ccccc1-c1cc(Cl)cc2c1OC(CN)C2 (racemic) [Example 95]", "human 5-hydroxytryptamine-2C (h5-HT2C) receptor (Homo sapiens, UniProt P28335)", 9.00),
    ("COc1ccc(OC)c(-c2cc(F)cc3c2OC(CN)C3)c1 (racemic) [Example 223]", "human 5-hydroxytryptamine-2C (h5-HT2C) receptor (Homo sapiens, UniProt P28335)", 8.00),
    ("COc1ccccc1-c1cccc2c1OC(CN)C2 (racemic) [Example 59]", "human 5-hydroxytryptamine-2C (h5-HT2C) receptor (Homo sapiens, UniProt P28335)", 8.70),
    ("NCC1Cc2cc(Cl)cc(-c3cccc(Cl)c3Cl)c2O1 (racemic) [Example 247]", "human 5-hydroxytryptamine-2C (h5-HT2C) receptor (Homo sapiens, UniProt P28335)", 7.82),
    ("CNCC1Cc2cccc(-c3ccc(Cl)cc3)c2O1 (racemic) [Example 420]", "human 5-hydroxytryptamine-2C (h5-HT2C) receptor (Homo sapiens, UniProt P28335)", 8.15),
    ("Cc1cc2c(c(-c3ccccc3C)c1)OC(CN)C2 (racemic) [Example 282]", "human 5-hydroxytryptamine-2C (h5-HT2C) receptor (Homo sapiens, UniProt P28335)", 8.77),
    ("CNCC1Cc2cc(OC)cc(-c3cc(OC)ccc3OC)c2O1 (racemic) [Example 501]", "human 5-hydroxytryptamine-2C (h5-HT2C) receptor (Homo sapiens, UniProt P28335)", 7.35),
    ("Cc1ccccc1-c1ccc(F)c2c1OC(CN)C2 (racemic) [Example 99]", "human 5-hydroxytryptamine-2C (h5-HT2C) receptor (Homo sapiens, UniProt P28335)", 7.68),
    ("CNCC1Cc2cc(F)cc(-c3ccccc3Cl)c2O1 (racemic) [Example 439]", "human 5-hydroxytryptamine-2C (h5-HT2C) receptor (Homo sapiens, UniProt P28335)", 9.35),
    ("NCC1Cc2cccc(/C=C/c3ccccc3)c2O1 (racemic) [Example 119]", "human 5-hydroxytryptamine-2C (h5-HT2C) receptor (Homo sapiens, UniProt P28335)", 7.11),
    ("COc1ccccc1-c1cccc2c1OC(CN)C2 (single isomer, unassigned; (+)) [Example 128]", "human 5-hydroxytryptamine-2C (h5-HT2C) receptor (Homo sapiens, UniProt P28335)", 7.39),
    ("CNCC1Cc2cc(OC)cc(-c3cc(C)ccc3C)c2O1 (racemic) [Example 500]", "human 5-hydroxytryptamine-2C (h5-HT2C) receptor (Homo sapiens, UniProt P28335)", 7.07),
    ("CNCC1Cc2cccc(-c3ccccc3C)c2O1 (single isomer, unassigned; (-)) [Example 407]", "human 5-hydroxytryptamine-2C (h5-HT2C) receptor (Homo sapiens, UniProt P28335)", 8.07),
    ("CNCC1Cc2cc(OC)cc(-c3cc(Cl)ccc3Cl)c2O1 (racemic) [Example 499]", "human 5-hydroxytryptamine-2C (h5-HT2C) receptor (Homo sapiens, UniProt P28335)", 8.44),
    ("CNCC1Cc2cc(F)cc(-c3cc(Cl)ccc3Cl)c2O1 (single isomer, unassigned; (-)) [Example 451]", "human 5-hydroxytryptamine-2C (h5-HT2C) receptor (Homo sapiens, UniProt P28335)", 9.51),
    ("CNCC1Cc2cccc(-c3cccc(C)c3)c2O1 (racemic) [Example 414]", "human 5-hydroxytryptamine-2C (h5-HT2C) receptor (Homo sapiens, UniProt P28335)", 8.47),
    ("Cc1ccccc1-c1cc(C2CCCC2)cc2c1OC(CN)C2 (racemic) [Example 309]", "human 5-hydroxytryptamine-2C (h5-HT2C) receptor (Homo sapiens, UniProt P28335)", 8.10),
    ("CC(C)NCC1Cc2cccc(-c3c(Cl)cccc3Cl)c2O1 (racemic) [Example 393]", "human 5-hydroxytryptamine-2C (h5-HT2C) receptor (Homo sapiens, UniProt P28335)", 7.67),
    ("Cc1ccc(Nc2cccc3c2OC(CN)C3)cc1C (racemic) [Example 181]", "human 5-hydroxytryptamine-2C (h5-HT2C) receptor (Homo sapiens, UniProt P28335)", 6.84),
    ("CNCC1Cc2cc(F)cc(-c3cc(F)ccc3F)c2O1 (racemic) [Example 448]", "human 5-hydroxytryptamine-2C (h5-HT2C) receptor (Homo sapiens, UniProt P28335)", 8.15),
    ("CC(C)(C)c1cccc2c1OC(CN)C2 (single isomer, unassigned; (-)) [Example 25]", "human 5-hydroxytryptamine-2C (h5-HT2C) receptor (Homo sapiens, UniProt P28335)", 7.74),
    ("NCC1Cc2cccc(-c3cccc(Cl)c3)c2O1 (single isomer, unassigned; (-)) [Example 67]", "human 5-hydroxytryptamine-2C (h5-HT2C) receptor (Homo sapiens, UniProt P28335)", 7.08),
    ("CNCC1Cc2cc(OC)cc(-c3c(C)cccc3C)c2O1 (single isomer, unassigned; (-)) [Example 560]", "human 5-hydroxytryptamine-2C (h5-HT2C) receptor (Homo sapiens, UniProt P28335)", 9.46),
    ("NCC1Cc2cccc(Nc3cccc(F)c3)c2O1 (racemic) [Example 183]", "human 5-hydroxytryptamine-2C (h5-HT2C) receptor (Homo sapiens, UniProt P28335)", 6.75),
    ("NCC1Cc2cc(C(F)(F)F)cc(-c3ccc(F)cc3)c2O1 (racemic) [Example 324]", "human 5-hydroxytryptamine-2C (h5-HT2C) receptor (Homo sapiens, UniProt P28335)", 7.22),
    ("NCC1Cc2cccc(-c3cc(Cl)ccc3Cl)c2O1 (racemic) [Example 163]", "human 5-hydroxytryptamine-2C (h5-HT2C) receptor (Homo sapiens, UniProt P28335)", 9.64),
    ("NCC1Cc2cc(-c3ccccc3)cc(-c3ccc(F)cc3)c2O1 (racemic) [Example 350]", "human 5-hydroxytryptamine-2C (h5-HT2C) receptor (Homo sapiens, UniProt P28335)", 6.30),
    ("NCC1Cc2cccc(-c3cccc(C(F)(F)F)c3)c2O1 (single isomer, unassigned; (-)) [Example 135]", "human 5-hydroxytryptamine-2C (h5-HT2C) receptor (Homo sapiens, UniProt P28335)", 6.88),
]
